The measurements presented in this section are drawn from paper PMC9186491.

system: IL12-induced-IFNg production in mouse splenocytes; assay: IL12-induced IFNγ production in mouse splenocytes; type: cell-based; details: Splenocyte
pIC50: −log10 of the molar value.
QUANTITY: pIC50

- COMPOUND: "CNC(=O)c1nnc(Nc2ccc(N3CCC3)cn2)cc1Nc1cccc(-c2ncn(C)n2)c1OC [SHR2915]"
  TARGET_DESC: "IL12-induced-IFNg production in mouse splenocytes"
  NUMBER: 7.22

###

molecular target: CYP450 3A4 (Homo sapiens, UniProt P08684); assay: CYP450 inhibition, 3A4; type: in vitro ADME; details: 3A4(t); read-out: CYP450 3A4(t)
Sequence (P08684 whole entry): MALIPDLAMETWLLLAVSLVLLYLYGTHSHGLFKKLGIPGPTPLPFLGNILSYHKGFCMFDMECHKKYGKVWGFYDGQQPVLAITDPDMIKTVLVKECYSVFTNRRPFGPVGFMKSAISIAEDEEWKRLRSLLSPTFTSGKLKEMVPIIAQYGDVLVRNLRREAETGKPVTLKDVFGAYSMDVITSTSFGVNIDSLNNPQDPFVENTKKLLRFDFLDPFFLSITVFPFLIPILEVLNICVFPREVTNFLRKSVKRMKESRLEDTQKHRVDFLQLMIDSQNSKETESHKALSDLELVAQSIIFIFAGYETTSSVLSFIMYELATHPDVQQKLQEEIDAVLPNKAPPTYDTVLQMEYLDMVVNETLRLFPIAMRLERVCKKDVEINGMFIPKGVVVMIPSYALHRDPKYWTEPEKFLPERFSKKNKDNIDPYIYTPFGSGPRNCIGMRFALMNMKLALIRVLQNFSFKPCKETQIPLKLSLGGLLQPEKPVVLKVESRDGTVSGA
pIC50: −log10 of the molar value.
QUANTITY: pIC50

- CHEM_SMILES: "[2H]C([2H])([2H])NC(=O)c1nnc(NC(=O)N2CCC2)cc1Nc1cccc(-c2ncn(C)n2)c1OC"
  RESULT: "< 4.52"
- CHEM_SMILES: "CNC(=O)c1nnc(NC(=O)C2CC2)c2[nH]c(-c3ccc(N)cc3OC)cc12"
  RESULT: "< 4.52"
- CHEM_SMILES: "CNC(=O)c1nnc(NC(=O)N2CCC2)cc1Nc1cccc(-c2ncn(C)n2)c1OC"
  RESULT: "< 4.52"

###

pIC50: −log10 of the molar value.
A set of compounds tested on JAK3 (Homo sapiens, UniProt P52333), with measured pIC50:
QUANTITY: pIC50

- COMPOUND: "CNC(=O)c1nnc(NC(=O)C2CC2)c2[nH]c(-c3ccc(N)cc3OC)cc12 [SHR2396]"
  QUANTITY: "pIC50"
  RESULT: "< 5.00"
- COMPOUND: "CNC(=O)c1nnc(NC(=O)N2CCC2)cc1Nc1cccc(-c2ncn(C)n2)c1OC [SHR8751]"
  QUANTITY: "pIC50"
  RESULT: "< 5.00"
- COMPOUND: "[2H]C([2H])([2H])NC(=O)c1nnc(NC(=O)N2CCC2)cc1Nc1cccc(-c2ncn(C)n2)c1OC [SHR9332]"
  QUANTITY: "pIC50"
  RESULT: "< 5.00"

###

test: PPB, H; type: in vitro ADME; settings: human, plasma

- CHEM_SMILES: "CNC(=O)c1nnc(NC(=O)N2CCC2)cc1Nc1cccc(-c2ncn(C)n2)c1OC"
  fraction unbound: 0.402
- CHEM_SMILES: "CNC(=O)c1nnc(NC(=O)C2CC2)c2[nH]c(-c3ccc(N)cc3OC)cc12"
  fraction unbound: 0.0258
- CHEM_SMILES: "[2H]C([2H])([2H])NC(=O)c1nnc(NC(=O)N2CCC2)cc1Nc1cccc(-c2ncn(C)n2)c1OC"
  fraction unbound: 0.274

###

# half-life annotations
experiment: LM T1/2, Mk; type: in vitro ADME; conditions: monkey, liver microsomes

- COMPOUND: "[2H]C([2H])([2H])NC(=O)c1nnc(NC(=O)N2CCC2)cc1Nc1cccc(-c2ncn(C)n2)c1OC [SHR9332]"
  MODIFIER: "="
  half-life (min): 30.9
- COMPOUND: "CNC(=O)c1nnc(NC(=O)C2CC2)c2[nH]c(-c3ccc(N)cc3OC)cc12 [SHR2396]"
  MODIFIER: "="
  half-life (min): 50
- COMPOUND: "CNC(=O)c1nnc(NC(=O)N2CCC2)cc1Nc1cccc(-c2ncn(C)n2)c1OC [SHR8751]"
  MODIFIER: ">"
  half-life (min): 99
- COMPOUND: "CNC(=O)c1nnc(NC(=O)C2CC2)c2[nH]c(-c3ccccc3OC)cc12 [SHR2178]"
  MODIFIER: "="
  half-life (min): 99
